B1: BCL2L13 (parent)
chain: YIIQQGGWGTVFSLESEEEEYPGI

variants of: B1; assay: protein stability index of a GFP-peptide fusion (GPS, HEK-293T) (PSI 1-6); higher = more stable; details: c terminus: a fixed tail appended;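 also: lentivirally expressed fusions sorted by FACS into six bins by GFP to DsRed ratio, PSI derived from sequencing read proportions per bin multiplied by bin number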
quantity: protein stability index
Answer with a number only.

Please review the entries below; each comes with its answer.
I24M = 1.53
P22S = 2.18
Y1R = 3.87
Y21E = 1.64
E19R = 1.93

Request: Form field: reported protein stability index of G9P
Result: 1.09

Request: Form field: reported protein stability index of Q5T
Result: 1.72

Request: Form field: reported protein stability index of W8D
Result: 2.56

Request: Form field: reported protein stability index of E19T
Result: 2.34
